Value source: paper PMC9035832

Target: integrin α5β1 (Homo sapiens, UniProt P05556+P08648)
Construct: using the isolated extracellular domain of integrins αVβ3 and α5β1; purchased R&D
Test: ELISA-like competitive integrin binding assay (fibronectin-coated plates)
Protocol: An ELISA-like assay using the isolated extracellular domain of integrins αVβ3 and α5β1 was performed in flat-bottom 96-well immuno plates (Brand) to determine the activities of the synthesized compounds. […] The absorbance was measured with a plate reader at 450 nm and corrected by subtraction of the absorbance at 620 nm. Afterward, the resulting values were plotted and analyzed using OriginPro® 2020b where the inflection point of a DoseResp fit describes the IC50 value. […]
reported.endpoint: IC50 (nM)

These solved cases illustrate the format of a correct answer.
>>> df
                                   molecule  recorded_value
0  [N-]=[N+]=NCCOCCOCCOc1ccc(C(=O)N[C@@H](Cc2ccc(OCCCNC3=NCCN3)cc2)C(=O)O)cc1 [10a]              40
1  O=C(N[C@@H](Cc1ccc(OCCCCNC2=NCCCN2)cc1)C(=O)O)c1ccc(O)cc1             511
2  O=C(N[C@@H](Cc1ccc(OCCCCNC2=NCCN2)cc1)C(=O)O)c1ccc(O)cc1            35.2
3  O=C(N[C@@H](Cc1ccc(OCCCNC2=NCCCN2)cc1)C(=O)O)c1cccc(O)c1            32.8

[A] O=C(N[C@@H](Cc1ccc(OCCCNC2=NCCCN2)cc1)C(=O)O)OCc1ccccc1
[B] O=C(N[C@@H](Cc1ccc(OCCCCCNC2=NCCCN2)cc1)C(=O)O)c1ccccc1
Query: Identify the entry with the smaller IC50: A or B . Select an item and report its label.
Result: A
(A: 71.6 nM, B: 2770 nM)

* * *

target: integrin αVβ3 (Homo sapiens, UniProt P05106+P06756); construct: using the isolated extracellular domain of integrins αVβ3 and α5β1; purchased Sino Biological; test: ELISA-like competitive integrin binding assay (vitronectin-coated plates)
pIC50: −log10 of the molar value.
reported.endpoint: pIC50

These recorded examples may help you get a feel for the data.
>>> print(df.to_string())
                                     smiles  recorded_value
0  O=C(N[C@@H](Cc1ccc(OCCCCNC2=NCCCN2)cc1)C(=O)O)OCc1ccccc1            9.24
1  O=C(N[C@@H](Cc1ccc(OCCCCCNC2=NCCN2)cc1)C(=O)O)OCc1ccccc1            8.42

[A] O=C(N[C@@H](Cc1ccc(OCCCCCNC2=NCCCN2)cc1)C(=O)O)c1ccc(O)cc1
[B] O=C(N[C@@H](Cc1ccc(OCCCCCNC2=NCCN2)cc1)C(=O)O)c1cccc(O)c1
Query: Parameter check: reported pIC50 is higher for which label, A or B ? Kindly state the label of the option you pick.
Result: A
(A: 7.44, B: 7.01)

* * *

test: Cell viability assay (resazurin based); conditions: WM115 cells, 3 days incubation, resazurin; read-out: Cytotoxicity IC50
reported.endpoint: pIC50
FYI, pIC50 means -log10 of a concentration in mol per litre.

Query: Please give the documented pIC50 of CC[C@H](C)[C@@H]([C@@H](CC(=O)N1CCC[C@H]1[C@H](OC)[C@@H](C)C(=O)N[C@H](C)[C@@H](O)c1ccccc1)OC)N(C)C(=O)[C@@H](NC(=O)[C@H](C(C)C)N(C)C(=O)OCc1ccc(NC(=O)[C@H](C)NC(=O)[C@@H](NC(=O)[C@H](CCC(=O)O)NC(=O)CCCc2cn(CCOCCOCCOc3ccc(C(=O)N[C@@H](Cc4ccc(OCCCCCNC5=NCCN5)cc4)C(=O)O)cc3)nn2)C(C)C)cc1)C(C)C
Result: 7.02

* * *

Target: integrin α5β1 (Homo sapiens, UniProt P05556+P08648)
Construct: using the isolated extracellular domain of integrins αVβ3 and α5β1; purchased R&D
Experiment: ELISA-like competitive integrin binding assay (fibronectin-coated plates)
Description: An ELISA-like assay using the isolated extracellular domain of integrins αVβ3 and α5β1 was performed in flat-bottom 96-well immuno plates (Brand) to determine the activities of the synthesized compounds. […] The absorbance was measured with a plate reader at 450 nm and corrected by subtraction of the absorbance at 620 nm. Afterward, the resulting values were plotted and analyzed using OriginPro® 2020b where the inflection point of a DoseResp fit describes the IC50 value. […]
reported.endpoint: IC50 (nM)

[a] O=C(N[C@@H](Cc1ccc(OCCCCNC2=NCCCN2)cc1)C(=O)O)OCc1ccccc1 [6dc]
[b] O=C(N[C@@H](Cc1ccc(OCCCCCNc2ncccn2)cc1)C(=O)O)OCc1ccccc1 [7db]
Query: Endpoint returns whichever of a and b has the numerically higher IC50. Lab note: record the label of whichever item you select.
Result: b

[1] O=C(N[C@@H](Cc1ccc(OCCCCCNC2=NCCN2)cc1)C(=O)O)c1ccccc1 [7aa]
[2] [N-]=[N+]=NCCOCCOCCOc1ccc(C(=O)N[C@@H](Cc2ccc(OCCCCNC3=NCCN3)cc2)C(=O)O)cc1 [10b]
Query: Of 1 and 2 , which carries the smaller reported IC50 figure? The response must carry the label of the picked entry.
Result: 2

[I] O=C(N[C@@H](Cc1ccc(OCCCNC2=NCCN2)cc1)C(=O)O)OCc1ccccc1 [5da]
[II] O=C(N[C@@H](Cc1ccc(OCCCCNC2=NCCN2)cc1)C(=O)O)OCc1ccccc1 [6da]
[III] O=C(N[C@@H](Cc1ccc(OCCCNC2=NCCCN2)cc1)C(=O)O)c1ccccc1 [5ac]
Query: Ordering criterion: IC50; begin with the maximum. Provide the ranking by listing each label in its place in the requested order.
Result: II, I, III
(II: 901 nM, I: 162 nM, III: 17.4 nM)

* * *

molecular target: integrin α5β1 (Homo sapiens, UniProt P05556+P08648); construct: using the isolated extracellular domain of integrins αVβ3 and α5β1; purchased R&D; test: ELISA-like competitive integrin binding assay (fibronectin-coated plates)
reported.endpoint: IC50 (µM)

[1] O=C(N[C@@H](Cc1ccc(OCCCCCNC2=NCCN2)cc1)C(=O)O)OCc1ccccc1 [7da]
[2] O=C(N[C@@H](Cc1ccc(OCCCCCNC2=NCCCN2)cc1)C(=O)O)c1ccc(O)cc1 [7bc]
Query: Endpoint returns whichever of 1 and 2 has the numerically higher IC50. Your choice should be expressed through its label.
Result: 1
(1: 7.75 µM, 2: 0.103 µM)

* * *

molecular target: integrin αVβ3 (Homo sapiens, UniProt P05106+P06756); construct: using the isolated extracellular domain of integrins αVβ3 and α5β1; purchased Sino Biological; experiment: ELISA-like competitive integrin binding assay (vitronectin-coated plates)
reported.endpoint: IC50 (nM)

In [3]: df
Out[3]:
                                   compound  recorded_value
0  O=C(N[C@@H](Cc1ccc(OCCCNc2ncccn2)cc1)C(=O)O)c1cccc(O)c1 [5cb]            7700
1  O=C(N[C@@H](Cc1ccc(OCCCCCNC2=NCCCN2)cc1)C(=O)O)c1ccccc1 [7ac]            58.8

[a] O=C(N[C@@H](Cc1ccc(OCCCNc2ncccn2)cc1)C(=O)O)c1ccc(O)cc1 [5bb]
[b] O=C(N[C@@H](Cc1ccc(OCCCCNC2=NCCN2)cc1)C(=O)O)c1ccccc1 [6aa]
Query: Between the entries labelled a and b , which has a larger IC50 value on record? Which one? Tell me its label.
Result: a

* * *

molecular target: integrin α5β1 (Homo sapiens, UniProt P05556+P08648); construct: using the isolated extracellular domain of integrins αVβ3 and α5β1; purchased R&D; experiment: ELISA-like competitive integrin binding assay (fibronectin-coated plates)
pIC50: −log10 of the molar value.
reported.endpoint: pIC50

                                   compound  reported_endpoint  recorded_value
0  O=C(N[C@@H](Cc1ccc(OCCCNC2=NCCN2)cc1)C(=O)O)c1cccc(O)c1 [5ca]              pIC50            7.52

[A] [N-]=[N+]=NCCOCCOCCOc1ccc(C(=O)N[C@@H](Cc2ccc(OCCCCCNC3=NCCN3)cc2)C(=O)O)cc1 [10c]
[B] O=C(N[C@@H](Cc1ccc(OCCCNC2=NCCN2)cc1)C(=O)O)c1ccccc1 [5aa]
Query: Look at A and B . Which one has the lower recorded pIC50 number? Answer format: the label of the selected item.
Result: A
(A: 6.87, B: 7.60)

* * *

target: integrin α5β1 (Homo sapiens, UniProt P05556+P08648); construct: using the isolated extracellular domain of integrins αVβ3 and α5β1; purchased R&D; assay: ELISA-like competitive integrin binding assay (fibronectin-coated plates); settings: isolated extracellular domain of human integrin α5β1, ligand fibronectin; Cilengitide as reference on all plates
The reader will find reported pIC50 values listed item by item below.
pIC50 field: float, defined as -log10 of concentration (mol/L).

In [3]: df
Out[3]:
                                   molecule  reported_endpoint  recorded_value
0  O=C(NC(Cc1ccc(OCCCCNC2=NCCCN2)cc1)C(=O)O)c1ccccc1 (stereo not drawn)              pIC50            7.76
1  O=C(NC(Cc1ccc(OCCCNC2=NCCCN2)cc1)C(=O)O)c1ccc(O)cc1 (stereo not drawn)              pIC50            7.73

Query: Specify pIC50 for O=C(NC(Cc1ccc(OCCCCCNC2=NCCN2)cc1)C(=O)O)c1ccc(O)cc1 (stereo not drawn) and stop.
Result: 5.78
